Overview of recorded % inhibition 1 µg/ml, N = 2 (HUVEC proliferation on coated DLL4) for various binders
# system_name: DLL4 extracellular domain (R&D systems, catalog #1506-D4/CF) (UniProt Q9NR61 27-529, limits assumed)
# Sequence (Q9NR61 27-529 limits assumed): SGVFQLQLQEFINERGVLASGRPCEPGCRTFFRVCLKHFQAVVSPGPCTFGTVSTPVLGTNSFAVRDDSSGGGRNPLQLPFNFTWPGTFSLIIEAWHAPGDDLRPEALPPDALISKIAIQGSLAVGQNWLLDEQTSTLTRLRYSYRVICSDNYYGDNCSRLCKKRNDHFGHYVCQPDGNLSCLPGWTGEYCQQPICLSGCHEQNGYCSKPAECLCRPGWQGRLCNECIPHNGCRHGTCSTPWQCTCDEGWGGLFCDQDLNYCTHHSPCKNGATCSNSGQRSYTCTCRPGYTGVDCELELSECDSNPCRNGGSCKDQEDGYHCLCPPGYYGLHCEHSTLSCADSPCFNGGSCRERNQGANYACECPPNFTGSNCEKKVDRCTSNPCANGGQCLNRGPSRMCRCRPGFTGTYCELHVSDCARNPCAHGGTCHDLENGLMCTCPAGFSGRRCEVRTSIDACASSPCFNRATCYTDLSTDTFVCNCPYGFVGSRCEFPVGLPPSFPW
# protocol_summary: cell-based or functional assay
Only the number, expressed in %, is required.

Example binders with recorded % inhibition 1 µg/ml, N = 2 (HUVEC proliferation on coated DLL4):
Measured % inhibition 1 µg/ml, N = 2 (HUVEC proliferation on coated DLL4), 21H3 (antibody, IgG4, V domains shown, Fully human; used for IgG4 rows and where no isotype is printed; also called 21H3 IgG4) VH: QVQLVQSGAEVKKPGASVKVSCKASGYTFTNYGITWVRQAPGQGPEWMGWISAYNGNTNYAQKLQDRVTVTTDTSTSTAYMELRSLRSDDTAVYYCARDRVPRIPVTTEAFDIWGQGTMVTVSS VL: QSVLTQPPSASGTPGQRVTISCSGSSSNIGSYFVYWYQQLPGTAPKLLIYRNNQRPSGVPDRFSGSESGTSASLAISGLRSEDEADYYCAAWDDSLSGHWVFGGGTRLTVL : 99

% inhibition 1 µg/ml, N = 2 (HUVEC proliferation on coated DLL4) in this record for 9G8 (antibody, IgG4, V domains shown, Fully human; used for IgG4 rows and where no isotype is printed; also called 9G8 IgG4) VH: QLQLQESGPGLVKPSETLSLSCTVSGGSISSSSSYWGLIRQPPGKGLEWIGSIYYSGSTYYSPSLKSRVSISVDTSKNQFSLKLSSVTAADTAVYFCARQGYGGHPDVFDIWGQGTMVTVSS VL: SSELTQSPSVSVSPGQTARITCSGDKLGDVYVCWYQQKTGQSPVLVIYEDTKRPSGIPERFSGSNSGNTATLTISGTQVMDEADYYCQAWDSTTAVIFGGGTKLTVL : 71

Field: next binder
The measured % inhibition 1 µg/ml, N = 2 (HUVEC proliferation on coated DLL4) associated with 1D4 (antibody, IgG4, V domains shown, Fully human XenoMouse antibody; also used where no isotype is printed) VH: QLQLQESGPGLVKPSETLSLTCTVSGGSISSSSYYWGWIRQPPGKGLEWIGSFYYSRSTYYNPSLKSRVTISVDTSKNQFSLKLSSVTAADTAVHYCARGSIAVPDAFDIWGQGTMVTVSS VL: SYELTQPPSVSVSPGQTASITCSGDKLGDKFACWYQQKPGHSPVLVVYQDNKRPSGIPERFSGSNSGNSATLTISGTQAMDEADYYCQAWDSNTAVFGGGTKLTVL reads 46

Values from patent US20100196385A1
